System: H358 cells
test-protocol: Cell viability test (CellTiter 96 AQueous One Solution)
Format: cell-based
protocol-conditions: Homo sapiens, NCI-H358; H358 (Lung); 72 h of treatment; read-out: IC50 (cell line viability)
recorded-endpoint: IC50 (nM)
Only the number, expressed in nM, is required.

// below: answered compounds
compound=Cc1c[nH]c(=O)c2c1[nH]c1ccc3cc(OCCN(C)C)ccc3c12 target_desc="H358 cells" recorded_endpoint=IC50 display_unit=nM obs_value=470
compound=Cc1cncc2c1[nH]c1ccc3cc(OCCN(C)C)ccc3c12 target_desc="H358 cells" recorded_endpoint=IC50 display_unit=nM obs_value=450

Consider the additional compound presented here.
Reported IC50 (H358 cells) for entry CCc1c[nH]c(=O)c2c1[nH]c1ccc3cc(OC)ccc3c12 [Compound C1, reference compound] is 145
